System: HT29 colon
Experiment: NCI tumour cell line growth inhibition, 48 h
Reported TGI values for a set of compounds

[
  {
    "compound": "NC(CCCNCc1ccccc1O)C(=O)O (stereo not drawn)",
    "TGI": "> 100 µM"
  },
  {
    "compound": "COc1cc2c(cc1C)NC(=O)/C2=C/c1c(C)nc2sc(C)cn12",
    "TGI": "> 100 µM"
  },
  {
    "compound": "N.N.N.N.O=S(=O)([O-])[O-].[Co+3].[OH3+].[OH3+]",
    "TGI": "> 100 µM"
  },
  {
    "compound": "Cc1ccc(C2CC(c3cccc(Nc4ccncc4)c3)=NN2c2ccc(Cl)cc2)cc1 (stereo not drawn)",
    "TGI": "3.9 µM"
  },
  {
    "compound": "CCC1=C[C@H]2CN(CCc3c([nH]c4ccccc34)[C@@](C(=O)OC)(c3cc4c(cc3OC)N(C)[C@H]3[C@@](O)(C(=O)OC)[C@H](OC(C)=O)[C@]5(CC)[C@@H]6C[C@@H]6CN6CC[C@]43[C@@H]65)C2)C1",
    "TGI": "2.91 µM"
  },
  {
    "compound": "O=S(=O)(c1ccccc1)C1CN(Cc2ccccc2)CCN(Cc2ccccc2)C1",
    "TGI": "> 100 µM"
  },
  {
    "compound": "CC1=C/C(=C(/c2ccc(O)c(C)c2)c2ccccc2C(=O)O)C=CC1=O",
    "TGI": "42.8 µM"
  },
  {
    "compound": "C/C(CN1C(=O)c2ccccc2C1=O)=N\\NS(C)(=O)=O",
    "TGI": "> 100 µM"
  },
  {
    "compound": "O=C1C=Cc2c(I)sc(I)c21",
    "TGI": "68.4 µM"
  },
  {
    "compound": "CC1=NN(c2ccccc2)C(=O)C1C(=O)C(=O)Nc1ccc(C)cc1C (stereo not drawn)",
    "TGI": "> 100 µM"
  },
  {
    "compound": "N=c1c2ccccc2nc2oc3ccc(Cl)cc3n12",
    "TGI": "> 100 µM"
  },
  {
    "compound": "CN(C)CCOc1cccc(NC2=C(Cl)C(=O)C(Nc3cccc(OCCN(C)C)c3)=C(Cl)C2=O)c1",
    "TGI": "0.666 µM"
  },
  {
    "compound": "Cc1cccc(C(O)c2ccccn2)c1O (stereo not drawn)",
    "TGI": "> 100 µM"
  },
  {
    "compound": "CC(=O)OCC(OC(C)=O)C(OC(C)=O)C(OC(C)=O)C(/C=N\\Nc1nc2ccccc2c(=O)[nH]1)OC(C)=O (stereo not drawn)",
    "TGI": "> 100 µM"
  },
  {
    "compound": "COc1ccc2c(c1)CC[C@@H]1[C@@H]2CC[C@]2(C)c3c(cc(C(=O)c4ccccc4)c4sccc34)C[C@@H]12",
    "TGI": "> 100 µM"
  },
  {
    "compound": "CCNCCNc1cc(C2CCCC2)c(C#N)c2nc3ccccc3n12",
    "TGI": "5.98 µM"
  },
  {
    "compound": "COC1(C)Cc2c(c(C)c(O)c3c2C(=O)C=C(Cl)C3=O)O1 (stereo not drawn)",
    "TGI": "67 µM"
  },
  {
    "compound": "Cn1cc(C2=C(c3cccc(NCC(O)CO)c3)C(=O)NC2=O)c2cc(Cl)ccc21 (stereo not drawn)",
    "TGI": "11.8 µM"
  },
  {
    "compound": "COC(=O)c1cc(O)ccc1NC(=O)c1ccc(O)cc1",
    "TGI": "> 100 µM"
  },
  {
    "compound": "COc1cc(C2SC(N)=Nc3c2c(C)nn3C(=O)Cc2ccccc2)ccc1O (stereo not drawn)",
    "TGI": "> 100 µM"
  },
  {
    "compound": "COC(=O)/C(Br)=C/c1c[nH]c2ccc(Br)cc12",
    "TGI": "24.8 µM"
  },
  {
    "compound": "Cc1cc2c(=O)cc(-c3ccc(C(=O)O)cc3)oc2c(C(=O)O)c1C",
    "TGI": "> 100 µM"
  },
  {
    "compound": "N#C/C(N)=C(\\C#N)N=CNc1ccccc1N",
    "TGI": "> 100 µM"
  },
  {
    "compound": "COc1cccc(-c2cc(NCc3ccc4c(c3)OCO4)nc(N)n2)c1",
    "TGI": "6.84 µM"
  },
  {
    "compound": "O=C1C=CC(=O)N1CCCCCCCCCCN1C(=O)C=CC1=O",
    "TGI": "26.7 µM"
  },
  {
    "compound": "COC1=CC(=O)C2[C@H]3Cc4ccccc4[C@H]3C2(C)C1=O (stereo partly drawn)",
    "TGI": "> 100 µM"
  },
  {
    "compound": "CO[C@H]1C[C@H](O[C@H]2CC[C@]3(C=O)[C@H]4CC[C@]5(C)[C@@H](C6=CC(=O)OC6)CC[C@]5(O)[C@@H]4CC[C@]3(O)C2)O[C@H](C)[C@H]1O[C@@H]1O[C@H](CO[C@@H]2O[C@H](CO)[C@@H](O)[C@H](O)[C@H]2O)[C@@H](O)[C@H](O)[C@H]1O",
    "TGI": "0.188 µM"
  },
  {
    "compound": "CC(=O)O[C@H]1C(=O)[C@@]2(C)[C@H]([C@H](OC(=O)c3ccncc3)[C@]3(O)C[C@H](OC(=O)[C@H](O)[C@@H](NC(=O)c4ccccc4)c4ccccc4)C(C)=C1C3(C)C)[C@]1(OC(C)=O)CO[C@@H]1C[C@@H]2O",
    "TGI": "> 25 µM"
  },
  {
    "compound": "CC1(CC(=O)OC(C#C[Si](C)(C)C)Cc2ccccc2)OCCO1 (stereo not drawn)",
    "TGI": "> 100 µM"
  },
  {
    "compound": "CCC(CCCCC1CC[C@H]2CC(=O)C[C@@H]12)OC (stereo partly drawn)",
    "TGI": "> 100 µM"
  },
  {
    "compound": "O=C(/C=C/c1ccc2c(c1)OCO2)c1ccccc(=O)c1O",
    "TGI": "26.3 µM"
  },
  {
    "compound": "Cn1c(=O)c2c(nc3sc4ncccc4c(=O)n32)n(C)c1=O",
    "TGI": "> 100 µM"
  },
  {
    "compound": "CCOC(=O)c1cc(C2(OC)CCN(Cc3ccccc3)C2=O)c(-c2cc(C)no2)[nH]1 (stereo not drawn)",
    "TGI": "> 100 µM"
  },
  {
    "compound": "CCNC(=O)Cc1nc2c(=O)[nH]cnc2n1C1OC(CO)C(O)C1O (stereo not drawn)",
    "TGI": "> 100 µM"
  },
  {
    "compound": "Cc1ccccc1C(C#N)/C(=N/NC(=O)C(=O)NN)C(=O)Nc1cccc(C(F)(F)F)c1 (stereo not drawn)",
    "TGI": "> 100 µM"
  },
  {
    "compound": "CCOC(=O)c1cc(Cl)ccc1OC(N)=O",
    "TGI": "> 100 µM"
  },
  {
    "compound": "CCCCN1C(=O)C[C@H]2[C@@H]3CCc4cc(OCCN5CCCC5)ccc4[C@H]3CC[C@]2(C)C1=O",
    "TGI": "5.06 µM"
  },
  {
    "compound": "O=C(O)C#Cc1ccc([N+](=O)[O-])cc1",
    "TGI": "> 100 µM"
  }
]

====

Reported TGI values for a set of compounds
System: SNB-75 CNS
Assay: NCI tumour cell line growth inhibition, 48 h
reported.endpoint: TGI

[
  {
    "compound": "O=C1[C@H](c2ccccc2)C2c3ccccc3CCN12 (stereo partly drawn)",
    "reported.endpoint": "TGI",
    "measurement": "> 100 µM"
  },
  {
    "compound": "CC(C)(C)C1CCN(C(=O)c2ccccc2)CC1",
    "reported.endpoint": "TGI",
    "measurement": "> 100 µM"
  },
  {
    "compound": "CCOC(=O)c1cc(C2(OC)CCN(Cc3ccccc3)C2=O)c(-c2cc(C)no2)[nH]1 (stereo not drawn)",
    "reported.endpoint": "TGI",
    "measurement": "> 100 µM"
  },
  {
    "compound": "CC[C@]12C=CCN3CCC4(c5cc(N=Nc6ccc([N+](=O)[O-])cc6)c(OC)cc5N(C)[C@H]4[C@@](O)(C(=O)OC)[C@@H]1OC(C)=O)[C@@H]32 (stereo partly drawn)",
    "reported.endpoint": "TGI",
    "measurement": "35.1 µM"
  },
  {
    "compound": "CC1OC2OC3C(OCC(O)C3O)OC(=O)[C@]34CCC(C)(C)CC3C3=CCC5[C@@]6(C)C[C@H](O)[C@H](OC7OC(CO)C(O)C(O)C7OC7OC(COC(=O)CC(C)(O)CC(=O)OC1C(O)C2O)C(O)C(O)C7O)[C@@](C)(CO)C6CC[C@@]5(C)[C@]3(C)CC4 (stereo partly drawn)",
    "reported.endpoint": "TGI",
    "measurement": "2.89 µM"
  },
  {
    "compound": "CN(C)C(=S)SCc1ccccc1",
    "reported.endpoint": "TGI",
    "measurement": "70.3 µM"
  },
  {
    "compound": "COC(=O)c1cc(/C=C2\\Cc3cc4c(cc3C2=O)CCC4)cc2c1CCC2",
    "reported.endpoint": "TGI",
    "measurement": "> 100 µM"
  },
  {
    "compound": "Cc1cc2c(=O)cc(-c3ccc(C(=O)O)cc3)oc2c(C(=O)O)c1C",
    "reported.endpoint": "TGI",
    "measurement": "> 100 µM"
  }
]

# credit: PubChem BioAssay (NCI)
